- tgt: 3-pTza peptide (Biotin-AminocaproicAcid-A.G.A.G.3-pTza.A.G.A.G)
- measurementProtocol: BLI; biotinylated peptide captured on streptavidin biosensors at 20 nM; IgG in solution at 20-200 nM; Octet HTX; 1x HBS-T, 1% BSA
assayEndpoint: kon (M⁻¹ s⁻¹)
# output: bare number, implied unit M⁻¹ s⁻¹

Req: Please look at this binder and report its kon: hSC44.28 IgG (antibody, V domains shown) VH: EVQLVESGGGLVQPGGSLRLSCTASGFSIDSYGFSWVRQAPGKGLEHIGYLTAGGRAFYASWAKSRSTITRNTNENTVTLKMNSLRAEDTAVYYCAKLGTGSPLAIWG VL: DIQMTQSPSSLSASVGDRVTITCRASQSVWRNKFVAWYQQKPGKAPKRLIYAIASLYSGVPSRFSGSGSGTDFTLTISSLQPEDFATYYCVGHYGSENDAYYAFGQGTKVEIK
Resp: 24900
